Cited source: ChEMBL document CHEMBL3860073

# System under test: Leukotriene A-4 hydrolase (Homo sapiens)
# Protocol text: Competitive inhibition of human C-terminal his6-tagged/N-terminal T7 gene leader sequence-tagged LTA4H using varying levels of L-arginine-7-amino-4-Methylcoumarine as substrate preincubated for 30 mins followed by substrate addition measured for 30 mins by fluorescence assay
Could you please report measured Ki for the items listed next?
Numeric answer only, unit nM assumed.

Q. Find the recorded Ki belonging to Nc1nc(-c2ccc(Cc3ccccc3)cc2)cs1 and report it.
A. 360

Q. So what's the measured Ki for this one? C[C@H](CS)C(=O)N1CCC[C@H]1C(=O)O [CAPTOPRIL]
A. 3700

* * *

# System under test: Leukotriene A-4 hydrolase (Homo sapiens, UniProt P09960)
# Sequence (P09960 whole entry): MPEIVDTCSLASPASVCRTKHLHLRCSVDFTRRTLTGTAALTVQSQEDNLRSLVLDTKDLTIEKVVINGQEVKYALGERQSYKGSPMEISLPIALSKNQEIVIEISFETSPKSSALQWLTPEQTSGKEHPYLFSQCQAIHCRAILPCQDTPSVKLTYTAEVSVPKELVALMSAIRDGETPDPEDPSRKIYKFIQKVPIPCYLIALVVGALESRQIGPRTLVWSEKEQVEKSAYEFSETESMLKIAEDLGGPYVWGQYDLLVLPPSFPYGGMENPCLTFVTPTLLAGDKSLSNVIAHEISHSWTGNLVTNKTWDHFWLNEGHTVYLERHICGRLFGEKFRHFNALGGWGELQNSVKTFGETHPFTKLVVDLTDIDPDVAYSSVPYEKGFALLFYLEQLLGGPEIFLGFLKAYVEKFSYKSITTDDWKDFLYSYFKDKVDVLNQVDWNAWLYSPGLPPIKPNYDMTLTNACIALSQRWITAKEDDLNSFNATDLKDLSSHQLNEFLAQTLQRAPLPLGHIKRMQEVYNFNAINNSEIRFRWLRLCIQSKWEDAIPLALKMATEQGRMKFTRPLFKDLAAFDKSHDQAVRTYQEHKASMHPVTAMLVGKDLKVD
# Protocol text: Binding affinity to human C-terminal his6-tagged/N-terminal T7 gene leader sequence-tagged LTA4H at 25 degC by ITC method
Measured endpoint: Kd (nM)
Respond with the bare value in nM.

Q. For Nc1nc(-c2ccc(Cc3ccccc3)cc2)cs1 , what is its reported Kd?
A. 310

Q. Any idea what Kd was measured for CN(C)CCOc1ccc(Oc2ccccc2)cc1 ?
A. 270

Q. Would you mind telling me what Kd value was observed for C[C@H](CS)C(=O)N1CCC[C@H]1C(=O)O [CAPTOPRIL] ?
A. 6250
